Below, each of the compounds is paired with its reported GI50 value.
system: U251; test: In vitro cytotoxicity (NCI protocol, SRB), U251; conditions: Homo sapiens, U-251, 48 h
# output: bare number, implied unit µM

Would you please look over these solved cases?
| compound | measured-attribute | value-unit | recorded-number |
| --- | --- | --- | --- |
| COc1ccc(S(=O)(=O)Nc2c(/C=C\c3cc(OC)c(OC)c(OC)c3)ccc(OC)c2O)cc1 [17a] | GI50 | µM | 0.0374 |
| COc1cc(/C=C\c2cc(OC)c(OC)c(OC)c2)cc(NS(=O)(=O)c2ccc(Cl)cc2)c1OC [13c] | GI50 | µM | 0.461 |
| COc1ccc(/C=C\c2cc(OC)c(OC)c(OC)c2)c(NS(=O)(=O)c2ccc(Cl)cc2)c1O [17c] | GI50 | µM | 0.287 |
| COc1ccc(S(=O)(=O)Nc2cc(/C=C\c3cc(OC)c(OC)c(OC)c3)cc(OC)c2OC)cc1 [13a] | GI50 | µM | 0.0357 |

Problem: What value of GI50 on U251 does COc1ccc(S(=O)(=O)Nc2cc(/C=C\c3cc(OC)c(OC)c(OC)c3)ccc2OC)cc1 [12a] have?
Result: 0.108
